Tgt: Recombinant wild type LRRK2 protein (Homo sapiens (Human), UniProt Q5S007)
Sequence (Q5S007 whole entry): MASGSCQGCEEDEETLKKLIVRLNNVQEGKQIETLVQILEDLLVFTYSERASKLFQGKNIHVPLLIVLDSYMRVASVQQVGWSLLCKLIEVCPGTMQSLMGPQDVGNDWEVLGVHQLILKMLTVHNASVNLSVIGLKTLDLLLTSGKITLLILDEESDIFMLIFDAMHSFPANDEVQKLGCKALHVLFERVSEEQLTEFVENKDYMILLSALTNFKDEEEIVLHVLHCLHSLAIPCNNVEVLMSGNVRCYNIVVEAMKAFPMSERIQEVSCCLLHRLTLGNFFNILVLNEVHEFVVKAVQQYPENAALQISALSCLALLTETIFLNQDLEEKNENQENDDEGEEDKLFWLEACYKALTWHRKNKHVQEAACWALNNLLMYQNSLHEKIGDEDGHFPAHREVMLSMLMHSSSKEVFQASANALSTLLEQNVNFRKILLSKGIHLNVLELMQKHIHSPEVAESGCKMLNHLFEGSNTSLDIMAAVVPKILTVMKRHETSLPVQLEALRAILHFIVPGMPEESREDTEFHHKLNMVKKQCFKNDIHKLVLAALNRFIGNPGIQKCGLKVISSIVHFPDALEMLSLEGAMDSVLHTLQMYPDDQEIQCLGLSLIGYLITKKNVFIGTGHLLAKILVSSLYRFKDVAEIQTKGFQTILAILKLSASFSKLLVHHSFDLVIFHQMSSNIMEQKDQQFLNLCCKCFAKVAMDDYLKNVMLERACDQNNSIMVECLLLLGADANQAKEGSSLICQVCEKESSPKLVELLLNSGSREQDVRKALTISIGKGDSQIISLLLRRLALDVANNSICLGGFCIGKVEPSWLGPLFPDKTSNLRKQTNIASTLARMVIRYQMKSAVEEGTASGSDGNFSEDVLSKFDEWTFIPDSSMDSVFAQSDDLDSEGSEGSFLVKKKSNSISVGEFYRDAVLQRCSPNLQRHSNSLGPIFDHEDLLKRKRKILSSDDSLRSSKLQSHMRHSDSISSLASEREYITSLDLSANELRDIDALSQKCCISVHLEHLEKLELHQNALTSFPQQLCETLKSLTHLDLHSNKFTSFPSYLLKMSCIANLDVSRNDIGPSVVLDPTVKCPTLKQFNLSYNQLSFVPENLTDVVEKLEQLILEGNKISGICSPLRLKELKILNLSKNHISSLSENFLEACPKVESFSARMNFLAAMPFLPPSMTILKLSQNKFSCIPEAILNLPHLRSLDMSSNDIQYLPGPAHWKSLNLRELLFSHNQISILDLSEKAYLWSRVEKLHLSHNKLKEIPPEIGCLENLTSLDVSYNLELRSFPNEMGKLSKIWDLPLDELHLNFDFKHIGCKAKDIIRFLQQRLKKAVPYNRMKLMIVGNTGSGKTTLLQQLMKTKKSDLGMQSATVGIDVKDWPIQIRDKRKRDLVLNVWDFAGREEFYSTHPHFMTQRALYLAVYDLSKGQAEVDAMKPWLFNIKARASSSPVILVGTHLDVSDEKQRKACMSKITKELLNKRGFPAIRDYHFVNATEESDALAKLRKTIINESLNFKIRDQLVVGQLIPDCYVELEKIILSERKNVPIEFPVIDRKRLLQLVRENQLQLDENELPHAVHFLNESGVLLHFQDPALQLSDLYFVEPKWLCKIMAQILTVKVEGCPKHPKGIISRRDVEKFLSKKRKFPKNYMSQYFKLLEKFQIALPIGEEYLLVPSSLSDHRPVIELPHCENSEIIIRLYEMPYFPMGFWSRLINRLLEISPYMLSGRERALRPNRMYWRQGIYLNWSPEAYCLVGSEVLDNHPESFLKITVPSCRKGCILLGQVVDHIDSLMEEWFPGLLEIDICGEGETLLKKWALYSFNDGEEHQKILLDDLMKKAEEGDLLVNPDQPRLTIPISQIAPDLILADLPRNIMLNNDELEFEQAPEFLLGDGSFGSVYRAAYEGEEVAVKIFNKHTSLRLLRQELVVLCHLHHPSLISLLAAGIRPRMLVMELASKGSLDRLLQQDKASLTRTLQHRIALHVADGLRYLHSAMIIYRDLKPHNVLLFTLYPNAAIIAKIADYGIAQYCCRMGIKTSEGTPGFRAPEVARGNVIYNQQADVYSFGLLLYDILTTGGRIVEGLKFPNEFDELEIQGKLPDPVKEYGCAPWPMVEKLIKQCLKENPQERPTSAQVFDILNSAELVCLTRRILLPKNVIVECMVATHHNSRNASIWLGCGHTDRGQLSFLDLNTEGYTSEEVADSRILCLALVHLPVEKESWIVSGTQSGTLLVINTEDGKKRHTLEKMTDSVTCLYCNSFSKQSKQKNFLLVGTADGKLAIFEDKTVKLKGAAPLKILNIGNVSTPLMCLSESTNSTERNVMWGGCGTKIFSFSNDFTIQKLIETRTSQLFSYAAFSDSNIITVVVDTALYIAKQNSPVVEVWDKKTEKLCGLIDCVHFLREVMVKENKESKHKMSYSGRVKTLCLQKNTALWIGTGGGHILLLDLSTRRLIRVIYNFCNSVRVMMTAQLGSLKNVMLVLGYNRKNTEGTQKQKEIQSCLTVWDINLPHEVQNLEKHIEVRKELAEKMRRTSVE
Experiment Summary: LRRK2 kinase activity, LanthaScreen TR-FRET assay (wild type)
Measurement Parameters: LRRKtide 400 nM, 25 μM ATP, 60 min; read-out: LRRK2 WT IC50
pIC50: −log10 of the molar value.
Assay Endpoint: pIC50

Examples with their reported pIC50 follow.
• Cc1c(C(=O)Nc2ccc3[nH]nc(C#N)c3c2)nc(Cl)c(C#N)c1C = > 7.00
• N#Cc1ccc(C(=O)Nc2ccc3[nH]nc(-c4ccoc4)c3c2)c(F)c1 = > 7.00
• Cc1c(C#N)cnc(C(=O)Nc2ccc3[nH]nc(-c4ccn(C(F)F)n4)c3c2)c1C = 6.00 to 7.00

State recorded pIC50 for all listed molecules.
1. C=C(C)c1c(C#N)cccc1C(=O)Nc1ccc2[nH]nc(C)c2c1
2. N#Cc1cccc(C(=O)Nc2ccc3[nH]nc(-c4cnco4)c3c2)c1Cl
3. N#Cc1cc(F)c(C(=O)Nc2ccc3[nH]nc(-c4ccoc4)c3c2)c(F)c1
4. COc1cc(-c2n[nH]c3ccc(NC(=O)c4ncc(C#N)cc4C)cc23)ccn1
5. Cc1cc(C#N)cnc1C(=O)Nc1cc(F)c2[nH]nc(-c3ccoc3)c2c1
6. Cc1cc(C#N)cnc1C(=O)Nc1ccc2[nH]nc(-c3ccoc3)c2n1 [Example 105]
7. Cc1cc(C#N)cnc1C(=O)Nc1ccc2[nH]nc(-c3ccnc(Br)c3)c2c1

(A)
5.00 to 6.00
> 7.00
> 7.00
6.00 to 7.00
6.00 to 7.00
6.00 to 7.00
> 7.00

State recorded pIC50 for all listed molecules.
1. COc1nc(C(=O)Nc2ccc3[nH]nc(C)c3c2)c(C)c(C)c1C#N
2. Cc1nc(C#N)n(C)c1C(=O)Nc1ccc2[nH]nc(-c3ccccc3)c2c1
3. N#Cc1ccc(C(=O)Nc2ccc3[nH]nc(-c4ccoc4)c3c2)c(Cl)c1

(A)
> 7.00
6.00 to 7.00
> 7.00

State recorded pIC50 for all listed molecules.
1. N#Cc1cccc(C(=O)Nc2ccc3[nH]nc(-c4cnco4)c3c2)c1F
2. Cc1c(C#N)cnc(C(=O)Nc2ccc3[nH]nc(-c4cnn(C5CC5)c4)c3c2)c1C
3. Cc1c(C#N)cnc(C(=O)Nc2ccc3[nH]nc(-c4cncc(Cl)c4)c3c2)c1C

(A)
1. > 7.00
2. > 7.00
3. > 7.00

(Q) State its pIC50 for this molecule: Cc1c(C#N)cnc(C(=O)Nc2ccc3[nH]nc(C4CC4C(F)(F)F)c3c2)c1C (centres unmarked)
(A) 5.00 to 6.00

###

Tgt: Recombinant G2019S-LRRK2 protein (Homo sapiens (Human), UniProt Q5S007, G2019S)
Sequence (Q5S007 whole entry G2019S): as the sequence (Q5S007 whole entry) above, with G2019S counted along it
Experiment Summary: LRRK2 kinase activity, LanthaScreen TR-FRET assay (G2019S)
Measurement Parameters: LRRKtide 400 nM, 25 μM ATP, 60 min
I'd be grateful if you could share measured IC50 for these entries.

Examples with their reported IC50 follow.
• Cc1c(C(=O)Nc2ccc3[nH]nc(-c4cnn(C(F)F)c4)c3c2)nc(Cl)c(C#N)c1C = < 0.1 µM
• COc1n[nH]c2ccc(NC(=O)c3nc(C)c(C#N)c(C)c3C)cc12 = < 0.1 µM
• Cc1cc(-c2n[nH]c3ccc(NC(=O)c4ncc(C#N)c(C)c4C)cc23)on1 = < 0.1 µM
• N#Cc1ccnc(C(=O)Nc2ccc3[nH]nc(-c4ccoc4)c3c2)c1F = 0.1 to 1 µM

(Q) State its IC50 for this compound: Cc1cc(C#N)cnc1C(=O)Nc1ccc2[nH]nc(-c3cnn(C)c3C)c2c1
(A) < 0.1 µM
